target: Her3-Fc (Homo sapiens, UniProt P21860); construct: purchased R&D 348-RB; assay: Spot phage ELISA, Her3-Fc; type: binding; conditions: ratio of signal for target protein over BSA background
Sequence (P21860 20-643 limits assumed): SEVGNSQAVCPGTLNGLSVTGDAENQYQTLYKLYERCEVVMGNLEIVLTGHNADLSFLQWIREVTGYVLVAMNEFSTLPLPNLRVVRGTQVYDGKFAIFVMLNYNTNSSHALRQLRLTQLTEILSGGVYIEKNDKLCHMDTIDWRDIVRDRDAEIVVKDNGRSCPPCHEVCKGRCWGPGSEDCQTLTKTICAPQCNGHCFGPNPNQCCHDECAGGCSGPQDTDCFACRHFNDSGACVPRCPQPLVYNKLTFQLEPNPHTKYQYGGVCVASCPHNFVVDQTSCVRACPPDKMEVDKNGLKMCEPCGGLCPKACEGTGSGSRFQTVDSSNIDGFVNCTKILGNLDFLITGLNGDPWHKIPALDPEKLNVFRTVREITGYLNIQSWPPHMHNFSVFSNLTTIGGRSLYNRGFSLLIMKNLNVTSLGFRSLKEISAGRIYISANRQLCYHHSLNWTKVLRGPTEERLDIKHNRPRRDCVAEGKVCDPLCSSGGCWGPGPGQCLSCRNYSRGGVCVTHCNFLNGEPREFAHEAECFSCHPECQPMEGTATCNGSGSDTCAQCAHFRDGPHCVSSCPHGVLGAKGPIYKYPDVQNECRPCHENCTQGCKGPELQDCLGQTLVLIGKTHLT
Bridges are numbered along the chain shown (N, C = ends). Where no end group is shown, it is not given here.
Below: a set of entries, each annotated with reported S/N.

- Sequence code: "GPTQSWQGRCGGIGYSGPTVCASGTTCQVLTPYWSECLPGAS (disulfide 10-27, 21-37 (inferred)) [Her3-Fc_CBD1]"
  Target or test system: "Her3-Fc (Homo sapiens, UniProt P21860)"
  S/N: 20.2
- Sequence code: "GCQLHYSQQGCKQYSULSGLVLWYTIHRLLRWRI [Her3-Fc EET I-II 4]"
  Target or test system: "Her3-Fc (Homo sapiens, UniProt P21860)"
  S/N: 21.1
- Sequence code: "GCPRILMRCKQDSDCLSGCVCSGPPPCG (also: bicyclic or more (positions not given here)) [Her3-Fc EET I-II 24]"
  Target or test system: "Her3-Fc (Homo sapiens, UniProt P21860)"
  S/N: 16.6
- Sequence code: "GCHPDPWWCKQDSDCLARWCG [Her3-Fc EET I-II 37]"
  Target or test system: "Her3-Fc (Homo sapiens, UniProt P21860)"
  S/N: 43.4
- Sequence code: "GCQSHYSHQGCKQDSDCLAGYCG [Her3-Fc EET I-II 11]"
  Target or test system: "Her3-Fc (Homo sapiens, UniProt P21860)"
  S/N: 26.1
- Sequence code: "GCMNWGTFCKQDSDCLAGCVCALFGVCG (also: bicyclic or more (positions not given here)) [Her3-Fc EET I-II 66]"
  Target or test system: "Her3-Fc (Homo sapiens, UniProt P21860)"
  S/N: 27.8
- Sequence code: "GCPRILIRCKQDSDCLAGCVCSGPPPCG (also: bicyclic or more (positions not given here)) [Her3-Fc EET I-II 47]"
  Target or test system: "Her3-Fc (Homo sapiens, UniProt P21860)"
  S/N: 22.4
- Sequence code: "GCISKWFSCKQDSDCLAGCVCLLWQDCG (also: bicyclic or more (positions not given here)) [Her3-Fc EET I-II 67]"
  Target or test system: "Her3-Fc (Homo sapiens, UniProt P21860)"
  S/N: 20.1
- Sequence code: "AFDCLGQCVPYVLSPYCNSSCTR [Her3-Fc AVR9 6]"
  Target or test system: "Her3-Fc (Homo sapiens, UniProt P21860)"
  S/N: 24.2
- Sequence code: "GCPRILMRCKQDSDCLAGCVCSGPPPCG (also: bicyclic or more (positions not given here)) [Her3-Fc EET I-II 7]"
  Target or test system: "Her3-Fc (Homo sapiens, UniProt P21860)"
  S/N: 24.5
- Sequence code: "GCPRILMRCKQDSDCLAGCVCAGPPPCG (also: bicyclic or more (positions not given here)) [Her3-Fc EET I-II 42]"
  Target or test system: "Her3-Fc (Homo sapiens, UniProt P21860)"
  S/N: 23.8
- Sequence code: "GCDLDLDWIWHECKQDSDCLAGCVCHQGNFCG (also: bicyclic or more (positions not given here)) [Her3-Fc EET I-II 9]"
  Target or test system: "Her3-Fc (Homo sapiens, UniProt P21860)"
  S/N: 25.7
- Sequence code: "GCWSSEKGLACKQDSDCLAGCVCDQTGSCG (also: bicyclic or more (positions not given here)) [Her3-Fc EET I-II 52]"
  Target or test system: "Her3-Fc (Homo sapiens, UniProt P21860)"
  S/N: 23.0

Hello, the source for this data is paper PMC10977697, in case you need it.
